# koff per record follows
Target: T1, Cynomolgus PD-1 extracellular domain, hFc tag (cynomolgus, UniProt B0LAJ3 25-170)
T1 construct: Bought; also called cynoPro1.ECD.hFc; cyno PD-1 ECD protein
T1 sequence (B0LAJ3 entry or part of it limits assumed): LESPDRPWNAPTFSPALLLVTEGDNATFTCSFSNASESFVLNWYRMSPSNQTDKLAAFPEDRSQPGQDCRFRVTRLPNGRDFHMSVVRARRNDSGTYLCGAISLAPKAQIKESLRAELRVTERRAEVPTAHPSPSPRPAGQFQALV
Test: SPR Biacore 8K; PD-1-hFc captured on anti-human Fc chip, VHH injected; 1:1 fit
Entry rule: numbers only, all in s⁻¹.

{"columns": ["binder", "testReadout", "resultValue"],
 "data": [
  ["AP17R1-2H2-Z1 (VHH, also called the humanized AP17R1-2H2; not shown: his- and c-Myc-tag from vector pETbac) VHH: QVQLVESGGGVVQPGGSLRLSCAASDSIDSLVNMGWYRQAPGKQRELVALIANYITHYADFVKGRFTISRDNSKNTLYLQMNSLRAEDTAVYYCYARNIIVDYWGQGTLVTVSS", "koff", 0.00863],
  ["AP17R1-2H2-Z1-R1-14B3 (VHH, not shown: his- and c-Myc-tag from vector pETbac) VHH: QVQLVESGGGVVQPGGSLRLSCAASDSIDSLVNMGWYRQAPGKQRELVALIARYITHYADFVKGRFTISRDNSKNTLYLQMNSLRAEDTAVYYCYARNIIVDYWGQGTLVTVSS", "koff", 0.00484],
  ["AP17R1-2H2-Z1-R1-27A2 (VHH, not shown: his- and c-Myc-tag from vector pETbac) VHH: QVQLVESGGGVVQPGGSLRLSCAASDSIDSLVNMGWYRQAPGKQRELVALIANYITHYADFVKGRFTISRDNSKNTLYLQMNSLRAEDTAVYYCYARSIIVDYWGQGTLVTVSS", "koff", 0.00745],
  ["AP17R1-2H2-Z1-R1-29B2 (VHH, not shown: his- and c-Myc-tag from vector pETbac) VHH: QVQLVESGGGVVQPGGSLRLSCAASDSIDSLVNMGWYRQAPGKQRELVALIANYITHYADFVKGRFTISRDNSKNTLYLQMNSLRAEDTAVYYCYARNIRVDYWGQGTLVTVSS", "koff", 0.00817]
]}

The binder identified as AP17R1-2H2-Z1-R1-30D3 (VHH, not shown: his- and c-Myc-tag from vector pETbac) VHH: QVQLVESGGGVVQPGGSLRLSCAASDSIDSLVNMGWYRQAPGKQRELVALIANYITHYADFVKGRFTISRDNSKNTLYLQMNSLRAEDTAVYYCYARNIIEDYWGQGTLVTVSS registered its koff at 0.00624

The binder identified as AP17R1-2H2-Z1-R1-14F3 (VHH, not shown: his- and c-Myc-tag from vector pETbac) VHH: QVQLVESGGGVVQPGGSLRLSCAASDSIDSLVNMGWYRQAPGKQRELVALIAWYITHYADFVKGRFTISRDNSKNTLYLQMNSLRAEDTAVYYCYARNIIVDYWGQGTLVTVSS registered its koff at 0.00247

The binder identified as AP17R1-2H2-Z1-R1-4D8 (VHH, not shown: his- and c-Myc-tag from vector pETbac) VHH: QVQLVESGGGVVQPGGSLRLSCAASDSIQSLVNMGWYRQAPGKQRELVALIANYITHYADFVKGRFTISRDNSKNTLYLQMNSLRAEDTAVYYCYARNIIVDYWGQGTLVTVSS registered its koff at 0.00833

The binder identified as AP17R1-2H2-Z1-R1-14F1 (VHH, not shown: his- and c-Myc-tag from vector pETbac) VHH: QVQLVESGGGVVQPGGSLRLSCAASDSIDSLVNMGWYRQAPGKQRELVALIAYYITHYADFVKGRFTISRDNSKNTLYLQMNSLRAEDTAVYYCYARNIIVDYWGQGTLVTVSS registered its koff at 0.00277
